# assay protocol: TOX21_p53_BLA_p3_viability: Viability Assessment in the Tox21 HCT-116 p53 Agonism Beta-lactamase Assay, Phase 3 (AID 2283593);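 also: cells exposed to compound for 16 h before reading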
Records with an inconclusive call do not appear. The source made the active and inactive calls. The calls were made as follows: active = hit-call score of the fitted dose curve at least 0.9, where 1 is the maximum; inconclusive = response in the unintended direction; inactive = score below 0.9.
Pick one: true (1) (active), false (0) (inactive)

Solved entries (count: 3):
molecule	class label
c1ccc2sc(SN3CCOCC3)nc2c1	false (0)
CC(=O)OCCN(CCOC(C)=O)c1ccc(N=Nc2ccc([N+](=O)[O-])cc2C#N)cc1	false (0)
CCCCCCC1CCCC(=O)O1 (stereo unspecified)	false (0)

## Task // return assay outcome for "COc1cc2c(cc1OC)-c1cc3ccc(OC)c(OC)c3c[n+]1CC2"
## Result false (0)

## Task Try this molecule next: "CNC[C@H](O)[C@@H](O)[C@H](O)[C@H](O)CO"
## Result false (0)

## Task Try this molecule next: O=S(=O)(O)CC(S)CS (stereo unspecified)
## Result false (0)

## Task Try this molecule next: "CC(C)COC(=O)COc1cc(Cl)c(Cl)cc1Cl"
## Result false (0)

## Task Try this molecule next: "CCc1ccccc1CC"
## Result false (0)

## Task Try this molecule next: "OCCN1CCN(CC/C=C2/c3ccccc3Sc3ccc(Cl)cc32)CC1"
## Result false (0)
